Assay: pKa determination
Assay type: physicochemical
Settings: read-out: pKa2
readout-type: pKa
Numbers only.

[ask] Tell me the measured pKa of COc1ccc(N(C(C)C)S(N)(=O)=O)cc1 , please.
[reply] 11

====

Answer each item with its documented pKa.
Experiment: pKa determination
Type: physicochemical
Details: read-out: pKa1 ± σ
Numbers only.

structure-as-smiles	recorded-result
COc1ccc(Cc2nn[nH]n2)cc1	4.86
COc1ccc(N(C(C)C)S(N)(=O)=O)cc1	6.49

[ask] Tell me the measured pKa of Nc1nnc2c(C(F)(F)F)nc3ccccc3n12 , please.
[reply] 2.14
